Recorded values, source patent US20210324054A1.

MEASURED_ON: Antigen DN-IV-Ag# (Fapon Biotech Inc.) (dengue virus)
TEST_PROTOCOL: indirect ELISA on coated DN-IV-Ag#, antibody initial
Provide the reported OD450 (reference 630 nm) of each item.
Use OD as the unit, but write only the number.

Task: Returns the measured OD450 (reference 630 nm) for the input binder. Input: WT (recombinant anti-dengue virus NS1 7F8 antibody of Example 2) (antibody, mouse IgG1, kappa, V domains shown) VH: EVQLQQPGPELVKPGASVKMSCKASGYTVTSYVIHWVRQKPGQGLEWIGYMNAYNDGIKYNEKFIGKAILTSDKSSSTAYMQLSSLTSEDSAVYYCTKEGLFYVMDYWGQGTSVTVSS VL: QIVLTQSPAIMSASPGEKVTMTCSATSSISYMHWYQQKSGTSPKRWIYDTSKLASPVPVRFSGSGSGTSYSLTISSMEAEDAATYFCQYWRSDLPTFGAGTKLELKR
Output: 1.42

Task: Also Mutation 3 (antibody, V domains shown) VH: EVQLQQPGPELVKPGASVKMSCKASGYTLTSTVIHWVRQKPGQGLEWIGYMNKYNDGLKYNPKFIGKAILTSDKSSSTAYMQLSSLTSEDSAVYYCTKEGLFYVMDYWGQGTSVTVSS VL: QIVLTQSPAIMSASPGEKVTMTCSVTSSISYMHWYQQKSGTSPKRWIYDTSKLASCVPVRFSGSGSGTSYSLTISSMEAEDAATYFCQQWRSQLPTFGAGTKLELKR ?
Output: 0.923

Task: Also Mutation 1 (antibody, V domains shown) VH: EVQLQQPGPELVKPGASVKMSCKASGYTFTSTVIHWVRQKPGQGLEWIGYMNPYNDGLKYNEKFIGKAILTSDKSSSTAYMQLSSLTSEDSAVYYCTKEGLFYVMDYWGQGTSVTVSS VL: QIVLTQSPAIMSASPGEKVTMTCSATSSISYMHWYQQKSGTSPKRWIYDTSKLASGVPVRFSGSGSGTSYSLTISSMEAEDAATYFCQQWRSDLPTFGAGTKLELKR ?
Output: 1.61

Task: Also Mutation 2 (antibody, V domains shown) VH: EVQLQQPGPELVKPGASVKMSCKASGYTFTSTVIHWVRQKPGQGLEWIGYMNGYNDGLKYNNKFIGKAILTSDKSSSTAYMQLSSLTSEDSAVYYCTKEGLFYVMDYWGQGTSVTVSS VL: QIVLTQSPAIMSASPGEKVTMTCSATSSISYMHWYQQKSGTSPKRWIYDTSKLASAVPVRFSGSGSGTSYSLTISSMEAEDAATYFCQQWRSDLPTFGAGTKLELKR ?
Output: 1.59
